Experiment: basal RPMI8226 viability, no added stimulus, profiling panel, cell-based, calcein-AM fluorescence, 48 h, PK04 Diversity Set (AID 1166);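 also: cells grown under basal conditions without added stimulus; test concentration not given here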
Conditions: RPMI8226 myeloma viability, higher = more signal
Each record is given yes (1) if its reported z-score is strictly below -0.4. Records at or above -0.4 are given no (0).

Request: Please state whether z-score is below -0.4 for COC(=O)C(CC#Cc1ccc2c(c1)[C@]1(C(=O)N2)[C@H](C(=O)Nc2nc3ccccc3s2)[C@H]2C(=O)O[C@H](c3ccccc3)[C@H](c3ccccc3)N2[C@@H]1c1ccc(O)cc1)C(=O)OC
Result: yes (1)

Request: In plain terms, does COc1ccc([C@H]2OC[C@@H]3C[C@@H](Cc4ccccc4)C(=O)N32)cc1 come in under -0.4 for z-score?
Result: no (0)

Request: Strictly below -0.4 in z-score? CCOC(=O)C[C@H]1[C@H](OC(=O)c2ccc(C(=O)c3ccccc3)cc2)[C@@H](NC(=O)c2ccc3ccccc3n2)c2cc(OCCCO)ccc2N1C(=O)c1ccccc1
Result: yes (1)

Request: Is it true that z-score reported for CC(C)C(=C=CC[C@@H](O)c1ccc(OCCO)cc1)C[C@@H](O)COCc1ccccc1 is less than -0.4?
Result: no (0)

Request: Answer whether the compound C=CCOC(=O)[C@H]1[C@@H]2C(=O)O[C@@H](c3ccccc3)[C@@H](c3ccccc3)N2[C@@H](c2ccc(OCCOC(=O)[C@H]3C[C@H]4C(=O)N[C@@H](CCCC[N+](C)(C)C)C(=O)N4[C@H]3c3ccc(O)cc3)cc2)[C@]12C(=O)Nc1ccc(I)cc12 has z-score strictly less than -0.4
Result: yes (1)
